- System: WaGa
- assay-notes: qHTS assay to identify novel small-molecules to repurpose for Merkel cell carcinoma treatment (AID 1296009); further: nearly all actives have a fitted effect of over 60% in size
- applied-conditions: MCC and control cell lines, CellTiter-Glo viability, 72 h; series mostly up to 46 µM
Results filed as inconclusive are left out. Calls of active or inactive are those of the source. The call rests on the fitted dose curve; in most records, active means well fitted inhibition curve with a large enough effect; inconclusive means small, poorly fitted or top-dose-only effect; inactive means flat fitted curve, though single readings scatter.
Assign a class; possible classes are YES for active, NO for inactive

Asked: Call for entry Cc1ccccc1C(=O)Nc1ccc(C(=O)N2CCCC(N(C)C)c3ccccc32)cc1 (configuration not stated) :
Given back: NO

Asked: Call for entry COc1cc(N)c(Cl)cc1C(=O)NC1CCN(CCCOc2ccc(F)cc2)CC1OC (configuration not stated) :
Given back: NO

Asked: Call for entry O=C(O)CNC(=O)c1ccccc1 :
Given back: NO

Asked: Call for entry CN(C)CCOc1ccccc1Cc1ccccc1 :
Given back: NO

Asked: Call for entry Oc1cc(O)c2c(c1)O[C@H](c1ccc(O)c(O)c1)[C@H](O)C2 :
Given back: NO

Asked: Call for entry CCC(C(=O)OCCN(CC)CC)c1ccccc1 (configuration not stated) :
Given back: NO

Asked: Call for entry CCCCOc1ccc(OCCCN2CCOCC2)cc1 :
Given back: NO

Asked: Call for entry CCN(CCCc1ccccc1)CCCc1ccccc1 :
Given back: NO

Asked: Call for entry Oc1ccc(O)cc1 :
Given back: YES

Asked: Call for entry C[n+]1c2cc(N)ccc2cc2ccc(N)cc21 (tested in a mixture with another compound) :
Given back: YES

Asked: Call for entry CCN(CC)CCOC(=O)C(c1ccccc1)C1CCCCC1 (configuration not stated) :
Given back: NO

Asked: Call for entry Cc1c(C(C)C)c(=O)n(-c2ccccc2)n1C :
Given back: NO

---

- assay-notes: qHTS of pediatric cancer cell lines to identify multiple opportunities for drug repurposing: Primary screen for RD cells (AID 1347104); further: nearly all actives have a fitted effect of over 55% in size
- applied-conditions: RD rhabdomyosarcoma viability, CellTiter-Glo luminescence, 48 h; series mostly up to 46 µM
Records with an inconclusive call do not appear. Activity calls are given as the source filed them. The call rests on the fitted dose curve; in most records, active means well fitted cell-killing curve with a large enough effect; inconclusive means small, poorly fitted or top-dose-only effect; inactive means flat fitted curve, though single readings scatter. Numbered stars: 1 amine (or outer) side, 2 acyl side, 3 side chain; on linkers, the order of the positions; unused ones are H or OH. Bridge positions count the residues as written; N and C are the ends. Square brackets hold non-standard residues; d marks the D form. Peptide text beside a SMILES is read from it. I, II: the chains in the order shown. Actinocin(9to1) = Cc1c2oc3c(C)ccc(C(=O)[*:1])c3nc-2c(C(=O)[*:2])c(N)c1=O; NMeV = CN[C@H](C(=O)O)C(C)C; Sar = CNCC(=O)O
Assign a class; possible classes are True (active), False (inactive)

Asked: Call for entry CCOC(=O)[C@H](CCc1ccccc1)N[C@@H](C)C(=O)N1Cc2ccccc2C[C@H]1C(=O)O :
Given back: False

Asked: Call for entry CCCCC(=O)O[C@]1(C(=O)CO)CC[C@H]2[C@@H]3CCC4=CC(=O)CC[C@]4(C)[C@H]3[C@@H](O)C[C@@]21C :
Given back: False

Asked: Call for entry Cc1cccc(C)c1NC(=O)CN1CCN(CCCC(c2ccc(F)cc2)c2ccc(F)cc2)CC1 :
Given back: False

Asked: Call for entry NCCC(O)(P(=O)(O)O)P(=O)(O)O :
Given back: False

Asked: Call for entry CCCCCCCCCCCCCCCC[N+](C)(C)CC :
Given back: True

Asked: Call for entry CC(=O)Nc1c(I)cc(I)c(C(=O)O)c1I :
Given back: False

Asked: Call for entry C[C@]12CCC(=O)C=C1[C@@H]1C[C@@H]1[C@H]1[C@@H]3[C@@H]4C[C@@H]4[C@@]4(CCC(=O)O4)[C@@]3(C)CC[C@@H]12 :
Given back: False

Asked: Call for entry O=C(OCCOCCO)c1ccccc1Nc1cccc(C(F)(F)F)c1 :
Given back: False

Asked: Call for entry COC1=CC(=O)C[C@@H](C)[C@]12Oc1c(Cl)c(OC)cc(OC)c1C2=O :
Given back: False

Asked: Call for entry CC1(C)O[C@@H]2[C@@H](CO[C@@]3(COS(N)(=O)=O)OC(C)(C)O[C@@H]23)O1 :
Given back: False

Asked: Call for entry CCCC(=O)Nc1ccc(OCC(O)CNC(C)C)c(C(C)=O)c1 (stereo not given) :
Given back: False

Asked: Call for entry CC(C)(C(=O)c1cccnc1)c1cccnc1 :
Given back: False

Asked: Call for entry C[n+]1c2cc(N)ccc2cc2ccc(N)cc21 (tested in a mixture with another compound) :
Given back: True

Asked: Call for entry N[C@H](Cc1c[nH]c2ccccc12)C(=O)O :
Given back: False

Asked: Call for entry CCCCCCCCCCCCCCCCCC(=O)OCC(O)CO (stereo not given) :
Given back: False

Asked: Call for entry C[C@]12CC[C@@H]3c4ccc(O)cc4CC[C@H]3[C@@H]1C[C@@H](O)[C@@H]2O :
Given back: False

Asked: Call for entry NC(=NCCCCCCN=C(N)/N=C(\N)Nc1ccc(Cl)cc1)/N=C(\N)Nc1ccc(Cl)cc1 :
Given back: True

Asked: Call for entry COCc1c(C(C)C)nc(C(C)C)c(/C=C/[C@@H](O)C[C@@H](O)CC(=O)O)c1-c1ccc(F)cc1 :
Given back: True

Asked: Call for entry CC(C)COC(=O)c1ccc(N)cc1 :
Given back: False

Asked: Call for entry COc1cc2c(cc1OC)C(=O)C(CC1CCN(Cc3ccccc3)CC1)C2 (stereo not given) :
Given back: False

Asked: Call for entry Cc1c(F)c(N2CCNC(C)C2)cc2c1c(=O)c(C(=O)O)cn2C1CC1 (stereo not given) :
Given back: False

Asked: Call for entry COc1c2occc2c(OC)c2c(=O)cc(C)oc12 :
Given back: False

Asked: Call for entry Cc1c2oc3c(C)ccc(C(=O)N[C@@H]4C(=O)N[C@H](C(C)C)C(=O)N5CCC[C@H]5C(=O)N(C)CC(=O)N(C)[C@@H](C(C)C)C(=O)O[C@@H]4C)c3nc-2c(C(=O)N[C@@H]2C(=O)N[C@H](C(C)C)C(=O)N3CCC[C@H]3C(=O)N(C)CC(=O)N(C)[C@@H](C(C)C)C(=O)O[C@@H]2C)c(N)c1=O (I: T[dV]P[Sar][NMeV] / II: T[dV]P[Sar][NMeV]; ester I:1-I:C, II:1-II:C; linker I:N-II:N via Actinocin(9to1)) :
Given back: True

Asked: Call for entry CC(Cc1ccccc1)(NC(=O)CN)c1ccccc1 (stereo not given) :
Given back: False

Asked: Call for entry CC1(C)O[C@@H]2C[C@H]3[C@@H]4CCC5=CC(=O)CC[C@]5(C)[C@@]4(F)[C@@H](O)C[C@]3(C)[C@]2(C(=O)CCl)O1 :
Given back: False

Asked: Call for entry CCN1CCC[C@H]1CNC(=O)c1c(OC)ccc(Br)c1OC :
Given back: False

Asked: Call for entry CC1(C)O[C@@H]2C[C@H]3[C@@H]4C[C@H](F)C5=CC(=O)C=C[C@]5(C)[C@H]4[C@@H](O)C[C@]3(C)[C@]2(C(=O)CO)O1 :
Given back: False

Asked: Call for entry O=S1(=O)c2cccc3cccc(c23)N1CCCN1CCN(c2ccc(F)cc2)CC1 :
Given back: False

Asked: Call for entry CN(C)C(=S)SC(=S)N(C)C :
Given back: True

Asked: Call for entry CCN(CC)C(=O)/C(C#N)=C/c1cc(O)c(O)c([N+](=O)[O-])c1 :
Given back: False

Asked: Call for entry Cc1nc2n(c(=O)c1CCN1CCC(c3noc4cc(F)ccc34)CC1)CCC[C@H]2O :
Given back: False

Asked: Call for entry COC(=O)[C@@H]1CC2=CC(=O)CC[C@]2(C)[C@@]23O[C@@H]2C[C@@]2(C)[C@@H](CC[C@@]24CCC(=O)O4)[C@H]13 :
Given back: False

Asked: Call for entry Cc1c(C)n(Cc2ccccc2)c2ccc(C(=O)OCCN(C)C)cc12 :
Given back: False

Asked: Call for entry CC(C)(C)NC(=O)[C@@H]1CN(Cc2cccnc2)CCN1C[C@@H](O)C[C@@H](Cc1ccccc1)C(=O)N[C@H]1c2ccccc2C[C@H]1O :
Given back: False

Asked: Call for entry NC(=O)c1cc[n+](CC2=C(C(=O)[O-])N3C(=O)[C@@H](NC(=O)Cc4cccs4)[C@H]3SC2)cc1 :
Given back: False

---

- assay-notes: Drug repurposing screens with cells derived from glioblastoma tumor samples (AID 1345199); further: on the % scale 0 is the no-effect control and ±100 the full control effect; nearly all actives have a fitted effect of over 40% in size
- applied-conditions: GBM patient neurospheres viability, ATP luminescence, 48 h; at 21.2 µM (top of the series); tumour line D
Records with an inconclusive call do not appear.
Consider the following compounds; for each one, report its activity, negative = cell killing.
Kindly answer with a numeric value in %, unit omitted.

Asked: Please indicate activity, negative = cell killing recorded for CC(C)N=C(N)/N=C(\N)Nc1ccc(Cl)cc1
Given back: -20.6

Asked: Please indicate activity, negative = cell killing recorded for CCn1cc(C(=O)O)c(=O)c2cnc(N3CCCC3)nc21
Given back: -3.67

Asked: Please indicate activity, negative = cell killing recorded for CN(C(=O)CN(CCO)CC(=O)N(C)C(C)(C)Cc1ccccc1)C(C)(C)Cc1ccccc1
Given back: -0.577

Asked: Please indicate activity, negative = cell killing recorded for CCCC(=O)Nc1ccc(OCC(O)CNC(C)C)c(C(C)=O)c1 (stereo not drawn)
Given back: 11

Asked: Please indicate activity, negative = cell killing recorded for C[C@H](O)C(=O)Nc1c(I)c(C(=O)NC(CO)CO)c(I)c(C(=O)NC(CO)CO)c1I
Given back: -12.3

Asked: Please indicate activity, negative = cell killing recorded for Cc1ccnc(NS(=O)(=O)c2ccc(N)cc2)n1
Given back: -5.49

Asked: Please indicate activity, negative = cell killing recorded for CC[C@@H](CO)NCCN[C@@H](CC)CO
Given back: -7.59

Asked: Please indicate activity, negative = cell killing recorded for CC(C)(C(=O)c1cccnc1)c1cccnc1
Given back: -8.11

Asked: Please indicate activity, negative = cell killing recorded for NC[C@H]1O[C@H](O[C@H]2[C@H](O[C@@H]3O[C@H](CO)[C@@H](O)[C@H]3O)C(O)[C@H](N)C[C@@H]2N)[C@H](N)[C@@H](O)[C@@H]1O (stereo partly drawn)
Given back: 0.454

Asked: Please indicate activity, negative = cell killing recorded for COc1c2occc2c(OC)c2c(=O)cc(C)oc12
Given back: -6.87

Asked: Please indicate activity, negative = cell killing recorded for CN1CCN(C(c2ccccc2)c2ccccc2)CC1
Given back: -26.8

Asked: Please indicate activity, negative = cell killing recorded for C[C@]12CC[C@H]3[C@@H](CCC4=CC(=O)CC[C@@]43C)[C@@H]1CC[C@@H]2C(=O)CO
Given back: -27.5

Asked: Please indicate activity, negative = cell killing recorded for NC(=O)c1cc[n+](CC2=C(C(=O)[O-])N3C(=O)[C@@H](NC(=O)Cc4cccs4)[C@H]3SC2)cc1
Given back: -13.1

Reference for the values: PubChem BioAssay (NCATS)
